All values here come from patent US8399480B2.

target_or_system: human β3 adrenergic receptor (Homo sapiens, UniProt P13945)
Construct: expressed in transfected cells; host or cells: Chinese hamster ovary (CHO) cells, stably transfected
Sequence (P13945 whole entry): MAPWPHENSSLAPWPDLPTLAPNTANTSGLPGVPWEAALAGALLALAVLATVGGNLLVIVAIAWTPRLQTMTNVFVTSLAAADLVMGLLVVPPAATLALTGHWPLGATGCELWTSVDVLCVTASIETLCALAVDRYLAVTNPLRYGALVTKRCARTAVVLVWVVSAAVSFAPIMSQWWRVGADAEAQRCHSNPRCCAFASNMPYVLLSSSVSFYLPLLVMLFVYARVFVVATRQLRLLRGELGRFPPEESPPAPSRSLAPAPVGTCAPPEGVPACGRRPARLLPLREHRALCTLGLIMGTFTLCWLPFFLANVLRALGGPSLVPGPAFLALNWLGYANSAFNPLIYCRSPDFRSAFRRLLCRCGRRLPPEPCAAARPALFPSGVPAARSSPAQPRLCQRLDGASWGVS
experiment_summary: Functional assay: cAMP production (LANCE TR-FRET) in CHO cells stably transfected with cloned β3 adrenergic receptor
Type: cell-based
experimental_parameters: Table 7; β3AR-cAMP; read-out: Human β3 Functional
pEC50: −log10 of the molar value.
assay_readout: pEC50

Write down pEC50 measured for item `O=S(=O)(Nc1ccc(C[C@@H]2CC[C@H]([C@H](O)c3ccccc3)N2)cc1)c1cccc2ccncc12` 5.52 to 6.00

Write down pEC50 measured for item `O=S(=O)(Nc1ccc(C[C@@H]2CC[C@H]([C@H](O)c3ccccc3)N2)cc1)c1ccc2ncsc2c1` 7.00 to 7.96

Write down pEC50 measured for item `O=S(=O)(Cc1ccccn1)Nc1ccc(C[C@@H]2CC[C@H]([C@H](O)c3ccccc3)N2)cc1` 6.00 to 7.00

Write down pEC50 measured for item `O=S(=O)(Nc1ccc(C[C@@H]2CC[C@H]([C@H](O)c3ccccc3)N2)cc1)c1cccc2cccnc12` 6.00 to 7.00
